- TARGET_UNDER_TEST: T1, EsCas13d, nuclease-dead (Eubacterium siraeum, UniProt B0MS50, R295A;H300A;R849A;H854A)
- T1 sequence: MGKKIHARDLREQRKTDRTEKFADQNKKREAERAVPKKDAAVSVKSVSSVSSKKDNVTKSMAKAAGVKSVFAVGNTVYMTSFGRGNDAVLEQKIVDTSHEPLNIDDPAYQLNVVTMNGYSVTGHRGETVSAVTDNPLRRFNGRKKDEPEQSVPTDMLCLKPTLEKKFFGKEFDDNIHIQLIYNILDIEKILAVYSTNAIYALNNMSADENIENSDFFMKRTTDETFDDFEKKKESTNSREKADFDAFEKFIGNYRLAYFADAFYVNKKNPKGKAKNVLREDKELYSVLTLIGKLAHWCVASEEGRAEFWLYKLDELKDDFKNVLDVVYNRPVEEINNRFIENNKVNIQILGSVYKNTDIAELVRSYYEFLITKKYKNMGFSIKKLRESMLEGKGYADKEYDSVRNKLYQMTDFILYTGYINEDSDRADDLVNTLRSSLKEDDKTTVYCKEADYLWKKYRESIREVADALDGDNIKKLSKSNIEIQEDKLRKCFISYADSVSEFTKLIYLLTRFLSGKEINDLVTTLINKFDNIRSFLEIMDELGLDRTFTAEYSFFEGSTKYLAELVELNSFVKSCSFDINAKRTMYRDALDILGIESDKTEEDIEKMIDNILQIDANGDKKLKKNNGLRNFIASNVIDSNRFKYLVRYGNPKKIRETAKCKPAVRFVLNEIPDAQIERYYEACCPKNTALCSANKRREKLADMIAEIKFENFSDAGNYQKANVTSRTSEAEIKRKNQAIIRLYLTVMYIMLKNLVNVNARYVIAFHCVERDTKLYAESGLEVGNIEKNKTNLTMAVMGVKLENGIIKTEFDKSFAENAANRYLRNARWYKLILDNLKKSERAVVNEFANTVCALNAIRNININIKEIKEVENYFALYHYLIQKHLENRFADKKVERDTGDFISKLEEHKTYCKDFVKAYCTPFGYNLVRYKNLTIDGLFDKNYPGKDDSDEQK
- EXPERIMENT_NOTES: crRNA (strand 1, pre-loaded); Mg2+; 40 mM Tris-HCl pH 7.5, 150 mM NaCl, 6 mM MgCl2, 1 mM DTT, 0.1% Tween-20, 0.2 mg/ml BSA; 25 C; 10 min per concentration, then washed
- CONDITION_LABEL: tags: His6-TwinStrep-SUMO cleaved; N-terminal SNAP kept (SNAP-Surface 488); label: 3' end held by stalled T7 RNA polymerase
OBSERVED_PROPERTY: pKd
Answers are plain numbers, as −log10 of the molar value.

Some entries whose results are on file:
target 1 insU 3' of 18,insA 3' of 3 (mixed) RNA 1: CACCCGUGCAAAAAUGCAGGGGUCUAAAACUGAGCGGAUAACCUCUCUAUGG RNA 2: GGGAAUGGAUCCACAUCUACGAAUUCGUACCAUAUGAGAGGUUAUCCGCUACACCGAGAUCGGAAGAGCACACGU    7.68
target 1 A16C,U19C (mixed) RNA 1: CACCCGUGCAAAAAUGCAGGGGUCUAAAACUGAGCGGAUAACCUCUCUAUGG RNA 2: GGGAAUGGAUCCACAUCUACGAAUUCGUACCACAGCGAGGUUAUCCGCUCACCGAGAUCGGAAGAGCACACGU    7.03
target 1 C2A,U3G (mixed) RNA 1: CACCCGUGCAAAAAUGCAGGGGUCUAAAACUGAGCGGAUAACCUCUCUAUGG RNA 2: GGGAAUGGAUCCACAUCUACGAAUUCGUACCAUAGAGAGGUUAUCCGCGAACCGAGAUCGGAAGAGCACACGU    8.07

For the next question, use this binder.
Which value of pKd has been reported for target 1 complement block 6-8 (mixed) RNA 1: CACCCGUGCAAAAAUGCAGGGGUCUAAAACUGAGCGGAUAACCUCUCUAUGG RNA 2: GGGAAUGGAUCCACAUCUACGAAUUCGUACCAUAGAGAGGUUAAGGGCUCACCGAGAUCGGAAGAGCACACGU in the records? 8.06
